assayed-target: Ba/F3 cells transformed with human Tel-TrkA (Homo sapiens)
Construct: expressed in transfected cells; host or cells: Ba/F3 murine hematopoietic progenitor cells (luciferase expressing); the other entry of the earlier key: ETV6 (P41212, Transcription factor ETV6)
Sequence (P04629 510-796 limits assumed): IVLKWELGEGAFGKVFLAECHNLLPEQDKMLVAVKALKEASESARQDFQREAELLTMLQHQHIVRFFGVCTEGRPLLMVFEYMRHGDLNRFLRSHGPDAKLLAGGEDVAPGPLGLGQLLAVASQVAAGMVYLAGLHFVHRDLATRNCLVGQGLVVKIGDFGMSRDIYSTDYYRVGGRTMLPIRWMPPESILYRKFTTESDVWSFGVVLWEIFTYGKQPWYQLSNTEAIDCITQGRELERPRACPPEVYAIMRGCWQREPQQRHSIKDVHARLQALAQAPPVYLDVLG
assay-overview: Proliferation of Ba/F3 cells transformed with human Tel-TrkA (Ba/F3 Tel-TrkA)
Format: cell-based
test-parameters: Table 1; 48 hours, Bright Glo luminescence; read-out: Ba/F3 Tel-TrkA
test-readout: IC50
The reply must contain the numeric value and, after it, the unit.

Before answering, review these 3 worked examples.
- CC(C)[C@H](CO)NC(=O)c1cnc2ccc(N3CCC[C@@H]3c3cccc(F)c3)nn12 [X-102]: 31 nM
- CC(C)S(=O)(=O)N1CCC(NC(=O)c2cnc3ccc(N4CCC[C@@H]4c4cccc(F)c4)nn23)CC1 [X-32]: 19 nM
- COC(=O)N[C@@H](C)CNC(=O)c1cnc2ccc(N3CCC[C@@H]3c3cccc(F)c3)nn12 [X-87]: 76 nM

Which IC50 is listed for O=C(NCCN1CCOCC1)c1cnc2ccc(N3CCC[C@@H]3c3cccc(F)c3)nn12 [X-52] ?
58 nM

* * *

assayed-target: Ba/F3 cells transformed with human Tel-TrkA (Homo sapiens)
Construct: expressed in transfected cells; host or cells: Ba/F3 murine hematopoietic progenitor cells (luciferase expressing); the other entry of the earlier key: ETV6 (P41212, Transcription factor ETV6)
assay-overview: Proliferation of Ba/F3 cells transformed with human Tel-TrkA (Ba/F3 Tel-TrkA)
Format: cell-based
test-parameters: Table 1; 48 hours, Bright Glo luminescence; read-out: Ba/F3 Tel-TrkA
test-readout: IC50 (nM)
One number for each entry, in nM.

• NC(=O)c1cnc2ccc(N3CCCC[C@@H]3c3cccc(F)c3)nn12 [X-19] = 79

Parameters: items (list). Returns: IC50 for each item.
1. CCONC(=O)c1cnc2ccc(N3CCC[C@@H]3c3cccc(F)c3)nn12 [X-149]
2. NCC(=O)Nc1cnc2ccc(N3CC(F)(F)C[C@@H]3c3cccc(F)c3)nn12 [X-204]

1. 23
2. 28

* * *

assayed-target: Ba/F3 cells transformed with human Tel-TrkA (Homo sapiens)
Construct: expressed in transfected cells; host or cells: Ba/F3 murine hematopoietic progenitor cells (luciferase expressing); the other entry of the earlier key: ETV6 (P41212, Transcription factor ETV6)
assay-overview: Proliferation of Ba/F3 cells transformed with human Tel-TrkA (Ba/F3 Tel-TrkA)
Type: cell-based
test-parameters: Table 1; 48 hours, Bright Glo luminescence; read-out: Ba/F3 Tel-TrkA
test-readout: pIC50
Answers are plain numbers, as −log10 of the molar value.

Before answering, review these 3 worked examples.
- CCOC(=O)c1cnc2ccc(N3CCC[C@@H]3c3cccc(F)c3)nn12 [X-158]: 7.03
- O=C(NCCc1ccc(F)cc1)c1cnc2ccc(N3CCC[C@@H]3c3cccc(F)c3)nn12 [X-37]: 6.86
- O=C(N[C@H]1CCCC[C@@H]1O)c1cnc2ccc(N3CCC[C@@H]3c3cccc(F)c3)nn12 [X-82]: 7.05

Turning now to a further molecule:
Which pIC50 is listed for CC(NC(=O)c1cnc2ccc(N3CCC[C@@H]3c3cccc(F)c3)nn12)c1ccc(F)cc1 (stereo partly shown) [X-42] ?
6.90
